# System: Alternaria solani
# TEST_DESCRIPTION: In vivo preventive test on Alternaria solani (tomato)
# MEASUREMENT_CONTEXT: preventive spray, 500 ppm of active ingredient, evaluated 7 days after inoculation
RESULT_TYPE: Efficacy (%)
Give the quantity in %, number only.

Reference set (8 entries):
> print(dat)
                                   compound  reported
1  Cn1nc(C(F)F)c(C(=O)NCc2cc(Cl)cc(Cl)c2)c1F        94
2  C#CCN(Cc1ccccc1[Si](C)(C)C)C(=O)c1c(C(F)F)nn(C)c1F        70
3  Cn1nc(C(F)F)c(C(=O)NCc2ccc3c(c2)CCCC3)c1F        94
4  CC(c1cc(Cl)ccc1Cl)N(C)C(=O)c1c(C(F)F)nn(C)c1F (stereo not shown)       100
5  CON(Cc1ncc(Cl)cc1Cl)C(=O)c1c(C(F)F)nn(C)c1F        80
6  CC(NC(=O)c1c(C(F)F)nn(C)c1Cl)c1ncc(C(F)(F)F)cc1Cl (racemic)        90
7  Cn1nc(C(F)F)c(C(=O)N(Cc2cccc(Oc3ccccc3)c2)C2COC2)c1Cl        70
8  Cn1nc(C(F)F)c(C(=O)NC(C)(C)c2ccc(Cl)cc2Cl)c1F        70

The compound listed as CC(NC(=O)c1c(C(F)F)nn(C)c1F)c1ncc(C(F)(F)F)cc1Cl (racemic) has a reported Efficacy of 95

The compound listed as Cn1nc(C(F)F)c(C(=O)NC(c2ccc(Cl)cc2Cl)C(F)(F)F)c1F (stereo not shown) has a reported Efficacy of 94
